- Assay system: T1, RBFOX1 RRM RbFoxmut (Fox-RRM*) (Homo sapiens, UniProt Q9NWB1 109-208, R118D;E147R;N151S;E152T)
- T1 sequence: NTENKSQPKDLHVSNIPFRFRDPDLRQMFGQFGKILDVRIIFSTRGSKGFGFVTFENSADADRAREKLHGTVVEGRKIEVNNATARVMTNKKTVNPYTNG
- Test details: EMSA; HiTS-Eq, 1 nM pool, 10 min; buffer printed only for the single-RNA assays: 10 mM Tris pH 7.5, 150 mM NaCl, 3.4 mM EDTA, 0.001% NP-40, 30 C
- Condition details: tags: His6 N-terminal (pET28a); label: 5' 32P
Over roughly 16,000 sequences, “ka relative to ugcaugu” has its median near 0.096; the highest 2% begin near 0.35. For the sample, the highest values were picked, then their nearest neighbours and some sequences at random.

Binder	binding signal
ACACACC (DNA:RNA) RNA: GGGAGACCGGAAUUCAGAUUGUCCACACACCUUAAAUCCCGUCGUAGCCACCA DNA 1: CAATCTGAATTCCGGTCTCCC DNA 2: TGGTGGCTACGACGGGATT	0.0425 KA relative to UGCAUGU
UCGCGUG (DNA:RNA) RNA: GGGAGACCGGAAUUCAGAUUGUCCUCGCGUGUUAAAUCCCGUCGUAGCCACCA DNA 1: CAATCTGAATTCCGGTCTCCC DNA 2: TGGTGGCTACGACGGGATT	0.153 KA relative to UGCAUGU
UUGUGUG (DNA:RNA) RNA: GGGAGACCGGAAUUCAGAUUGUCCUUGUGUGUUAAAUCCCGUCGUAGCCACCA DNA 1: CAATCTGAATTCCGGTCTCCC DNA 2: TGGTGGCTACGACGGGATT	0.491 KA relative to UGCAUGU
GUGUGUC (DNA:RNA) RNA: GGGAGACCGGAAUUCAGAUUGUCCGUGUGUCUUAAAUCCCGUCGUAGCCACCA DNA 1: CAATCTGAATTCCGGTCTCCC DNA 2: TGGTGGCTACGACGGGATT	0.329 KA relative to UGCAUGU
UCGCGUC (DNA:RNA) RNA: GGGAGACCGGAAUUCAGAUUGUCCUCGCGUCUUAAAUCCCGUCGUAGCCACCA DNA 1: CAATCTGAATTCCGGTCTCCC DNA 2: TGGTGGCTACGACGGGATT	0.145 KA relative to UGCAUGU
UCGUGUC (DNA:RNA) RNA: GGGAGACCGGAAUUCAGAUUGUCCUCGUGUCUUAAAUCCCGUCGUAGCCACCA DNA 1: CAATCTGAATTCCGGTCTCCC DNA 2: TGGTGGCTACGACGGGATT	0.359 KA relative to UGCAUGU

Values from paper PMC9911399
